- Tested on: RSV strain A2
- METHOD: RSV antiviral cytoprotection assay in Hep2 cells (RSV-induced cytopathic effect, Cell TiterGlo)
- Format: cell-based, Respiratory Syncytial Virus (RSV)
- CONDITION CONTEXT: human respiratory syncytial virus, HEp-2, 0.5 μM compound; RSV A2-infected Hep2 cells; % inhibition calculated from 4-parameter dose response curve, normalized to 0% and 100%; read-out: Percent inhibition at 0.5 μM
Measured inhibition at 0.5 µM accompanies every entry in the list below.
MEASUREMENT LABEL: inhibition at 0.5 µM

STRUCTURE SMILES	VAL
Cc1cn2nc([C@@H]3CCCCN3C(=O)c3c(F)ccc(C)c3F)cc2nc1N1C[C@@H](C#N)[C@@H](O)C1	100%
Cc1cn2nc([C@@H]3CCCCN3C(=O)c3cccc4c3OCO4)cc2nc1N1CC[C@H](N)C1	100%
Cc1noc(-c2ccccc2C(=O)N2CCCC[C@H]2c2cc3nc(N4C[C@@H](C#N)[C@@H](O)C4)c(C)cn3n2)n1	87%
Cc1cn2nc([C@@H]3CCCCN3C(=O)c3ncc(Cl)cc3C(F)(F)F)cc2nc1N1CC[C@H](N)C1	56%
COc1ccc(F)c(C(=O)N2CCCC[C@H]2c2cc3nc(N4CC[C@H](N)C4)c(C)cn3n2)n1	100%
Cc1cc(C(=O)N2CCCC[C@H]2c2cc3nc(N4CC[C@H](N)C4)c(C)cn3n2)c2[nH]ncc2c1	100%
Cc1cn2nc([C@@H]3CCCCN3C(=O)c3cc4c(OC(F)F)cccc4[nH]3)cc2nc1N1CC[C@H](N)C1	13%

###

In this section, each of the compounds is paired with its reported inhibition at 0.5 µM.
- Tested on: RSV strain A2
- METHOD: RSV antiviral cytoprotection assay in Hep2 cells (RSV-induced cytopathic effect, Cell TiterGlo)
- Type: cell-based, Respiratory Syncytial Virus (RSV)
- CONDITION CONTEXT: human respiratory syncytial virus, HEp-2, 0.5 μM compound; RSV A2-infected Hep2 cells; % inhibition calculated from 4-parameter dose response curve, normalized to 0% and 100%; read-out: Percent inhibition at 0.5 μM
MEASUREMENT LABEL: inhibition at 0.5 µM (%)

COMPOUND	MEASUREMENT LABEL	ENDPOINT UNIT	VAL
COc1cc2c(cc1C(=O)N1CCCC[C@H]1c1cc3nc(N4CC[C@H](N)C4)c(C)cn3n1)CCC2 [Compound 51]	inhibition at 0.5 µM	%	100
Cc1cn2nc([C@@H]3CCCCN3C(=O)c3c(Cl)nc4ccccn34)cc2nc1N1CC[C@H](N)C1 [Compound 56]	inhibition at 0.5 µM	%	84
Cc1cn2nc([C@@H]3CCCCN3C(=O)c3cccc4c3OCC(=O)N4)cc2nc1N1CC[C@H](N)C1 [Compound 65]	inhibition at 0.5 µM	%	97
Cc1cn2nc([C@@H]3CCCCN3C(=O)c3ccc(F)cc3F)cc2nc1N1CC[C@H](N)C1 [Compound 73]	inhibition at 0.5 µM	%	99

###

- Test system: RSV strain A2
- METHOD: RSV antiviral cytoprotection assay in Hep2 cells (RSV-induced cytopathic effect, Cell TiterGlo)
- Assay type: cell-based, Respiratory Syncytial Virus (RSV)
- CONDITION CONTEXT: human respiratory syncytial virus, HEp-2, 0.5 μM compound; RSV A2-infected Hep2 cells; % inhibition calculated from 4-parameter dose response curve, normalized to 0% and 100%; read-out: Percent inhibition at 0.5 μM

MOLECULE	inhibition at 0.5 µM [%]
COc1cc2c(cc1C(=O)N1CCCC[C@H]1c1cc3nc(N4C[C@@H](C#N)[C@@H](O)C4)c(C)cn3n1)CCC2	97
COc1cc(C)c(C(=O)N2CCCC[C@H]2c2cc3nc(N4CC[C@H](N)C4)c(C)cn3n2)cc1C	100
Cc1cn2nc([C@@H]3CCCCN3C(=O)c3cc(Cl)ccc3NS(C)(=O)=O)cc2nc1N[C@H]1C[C@@H](N)C1	100
COc1ccc(C(C)(C)C)cc1C(=O)N1CCCC[C@H]1c1cc2nc(N3CC[C@H](N)C3)c(C)cn2n1	13
Cc1cn2nc([C@@H]3CCCCN3C(=O)c3c(Cl)cnn3C(C)C)cc2nc1N1C[C@@H](C#N)[C@@H](O)C1	100
Cc1cn2nc([C@@H]3CCCCN3C(=O)c3cc(F)ccc3OC(F)(F)F)cc2nc1N1CC[C@H](N)C1	100
Cc1cn2nc([C@@H]3CCCCN3C(=O)c3ccc4cnccc4n3)cc2nc1N1CC[C@H](N)C1	4
Cc1cn2nc([C@@H]3CCCCN3C(=O)c3cc(Cl)ccc3NS(C)(=O)=O)cc2nc1NCC(N)c1ccccc1 (some centres unmarked)	100
Cc1cc(C(=O)N2CCCC[C@H]2c2cc3nc(N4C[C@@H](C#N)[C@@H](O)C4)c(C)cn3n2)c2[nH]ncc2c1	100
Cc1cn2nc([C@@H]3CCCCN3C(=O)c3cccc(F)c3C(F)(F)F)cc2nc1N1CC[C@H](N)C1	100
Cc1cn2nc([C@@H]3CCCCN3C(=O)c3cccc(F)c3Cl)cc2nc1N1C[C@@H](C#N)[C@@H](O)C1	100
COc1ccc(Cl)c(C(=O)N2CCCC[C@H]2c2cc3nc(N4C[C@@H](C#N)[C@@H](O)C4)c(C)cn3n2)c1	100
COc1cc(C)ccc1C(=O)N1CCCC[C@H]1c1cc2nc(N3CC[C@H](N)C3)c(C)cn2n1	100
Cc1ccc(C(=O)N2CCCC[C@H]2c2cc3nc(N4C[C@@H](C#N)[C@@H](O)C4)c(C)cn3n2)c(C(F)(F)F)c1	92

###

- Tested on: RSV strain A2
- METHOD: RSV antiviral cytoprotection assay in Hep2 cells (RSV-induced cytopathic effect, Cell TiterGlo)
- Type: cell-based, Respiratory Syncytial Virus (RSV)
- CONDITION CONTEXT: human respiratory syncytial virus, HEp-2, 0.5 μM compound; RSV A2-infected Hep2 cells; % inhibition calculated from 4-parameter dose response curve, normalized to 0% and 100%; read-out: Percent inhibition at 0.5 μM
Listed here are molecules together with their documented inhibition at 0.5 µM.
MEASUREMENT LABEL: inhibition at 0.5 µM (%)

MOLECULE	ENDPOINT UNIT	VAL
Cc1cn2nc([C@@H]3CCCCN3C(=O)c3cc(Cl)ccc3NS(C)(=O)=O)cc2nc1NCC(C)N (some centres unmarked)	%	100
CCS(=O)(=O)c1ccc(F)c(C(=O)N2CCCC[C@H]2c2cc3nc(N4C[C@@H](C#N)[C@@H](O)C4)c(C)cn3n2)c1	%	60
Cc1cn2nc([C@@H]3CCCCN3C(=O)c3ccc4ncccc4c3)cc2nc1N1CC[C@H](N)C1	%	37
Cc1cn2nc([C@@H]3CCCCN3C(=O)c3[nH]c4c(C)ccc(C)c4c3C)cc2nc1N1CC[C@H](N)C1	%	25
Cc1cn2nc([C@@H]3CCCCN3C(=O)c3ccccc3C(F)(F)F)cc2nc1N1C[C@@H](C#N)[C@@H](O)C1	%	100
Cc1ccc(S(C)(=O)=O)cc1C(=O)N1CCCC[C@H]1c1cc2nc(N3CC[C@H](N)C3)c(C)cn2n1	%	61
Cc1cn2nc([C@@H]3CCCCN3C(=O)c3ccc(Cl)cn3)cc2nc1N1CC[C@H](N)C1	%	44
Cc1cccnc1C(=O)N1CCCC[C@H]1c1cc2nc(N3C[C@@H](C#N)[C@@H](O)C3)c(C)cn2n1	%	91
COC(=O)[C@H]1C[C@H](N)CN1c1nc2cc([C@@H]3CCCCN3C(=O)c3cc(Cl)ccc3NS(C)(=O)=O)nn2cc1C	%	99
Cc1cn2nc([C@@H]3CCCCN3C(=O)c3cccc(F)c3C)cc2nc1N1C[C@@H](C#N)[C@@H](O)C1	%	100
Cc1cn2nc([C@@H]3CCCCN3C(=O)c3cccc(CO)n3)cc2nc1N1CC[C@H](N)C1	%	56
Cc1cn2nc([C@@H]3CCCCN3C(=O)c3cc(Cl)ccc3NS(C)(=O)=O)cc2nc1N1C[C@@H](C#N)[C@@H](OC(=O)c2cccnc2)C1	%	100
Cc1cn2nc([C@@H]3CCCCN3C(=O)c3cc(Cl)ccc3NS(C)(=O)=O)cc2nc1N1C[C@@H](C#N)[C@@H](OC(=O)CCC(=O)NCCN2CCOCC2)C1	%	100
Cc1cn2nc([C@@H]3CCCCN3C(=O)c3ccccc3Cl)cc2nc1N1CC[C@H](N)C1	%	100

###

- Tested on: RSV strain A2
- METHOD: RSV antiviral cytoprotection assay in Hep2 cells (RSV-induced cytopathic effect, Cell TiterGlo)
- Format: cell-based, Respiratory Syncytial Virus (RSV)
- CONDITION CONTEXT: human respiratory syncytial virus, HEp-2, 0.5 μM compound; RSV A2-infected Hep2 cells; % inhibition calculated from 4-parameter dose response curve, normalized to 0% and 100%; read-out: Percent inhibition at 0.5 μM
MEASUREMENT LABEL: inhibition at 0.5 µM (%)

STRUCTURE SMILES	ENDPOINT UNIT	VAL
Cc1cn2nc([C@@H]3CCCCN3C(=O)c3c(F)ccc(C)c3F)cc2nc1N1CC[C@H](N)C1	%	100
Cc1cn2nc([C@@H]3CCCCN3C(=O)c3cc(Cl)ccc3NS(C)(=O)=O)cc2nc1N1C[C@@H](N)C[C@@H]1C(=O)O	%	70
Cc1cn2nc([C@@H]3CCCCN3C(=O)c3ccccc3S(N)(=O)=O)cc2nc1N1CC[C@H](N)C1	%	45
Cc1cn2nc([C@@H]3CCCCN3C(=O)c3ccc(C)c(F)c3F)cc2nc1N1CC[C@H](N)C1	%	99
Cc1cn2nc([C@@H]3CCCCN3C(=O)c3c(F)cccc3F)cc2nc1N1C[C@@H](C#N)[C@@H](O)C1	%	98
Cc1cn2nc([C@@H]3CCCCN3C(=O)c3cccc(F)c3Cl)cc2nc1N1CC[C@H](N)C1	%	100
Cc1cn2nc([C@@H]3CCCCN3C(=O)c3cc(C(F)(F)F)ccn3)cc2nc1N1CC[C@H](N)C1	%	80
